- Target or system: Delta-type opioid receptor (Mus musculus)
- Sequence (P32300 whole entry): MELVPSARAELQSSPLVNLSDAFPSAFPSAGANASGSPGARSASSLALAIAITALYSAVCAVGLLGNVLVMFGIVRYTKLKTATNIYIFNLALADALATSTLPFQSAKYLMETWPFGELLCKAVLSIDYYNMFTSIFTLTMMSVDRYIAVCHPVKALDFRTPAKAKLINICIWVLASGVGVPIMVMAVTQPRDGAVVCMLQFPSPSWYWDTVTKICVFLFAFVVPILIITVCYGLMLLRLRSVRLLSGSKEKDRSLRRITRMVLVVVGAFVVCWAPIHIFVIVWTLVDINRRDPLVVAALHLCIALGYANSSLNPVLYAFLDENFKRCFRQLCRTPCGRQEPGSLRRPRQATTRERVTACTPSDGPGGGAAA
- Experiment summary: Displacement of [125I]-BNtxA from mouse cloned DOR-1 expressed in CHO cell membrane after 90 mins
Endpoint name: Ki (nM)
Numbers only, in nM.

Some entries whose results are on file:
[[record]]
entry_smiles = "C=CCN1CC[C@]23c4c5ccc(O)c4O[C@H]2[C@H](NC(=O)c2ccc4ccccc4c2)CC[C@@]3(O)[C@H]1C5"
result = 5.51

[[record]]
entry_smiles = "C=CCN1CC[C@]23c4c5ccc(O)c4O[C@H]2[C@H](NC(=O)c2cccc(Br)c2)CC[C@@]3(O)[C@H]1C5"
result = 23.4

[[record]]
entry_smiles = "C=CCN1CC[C@]23c4c5ccc(O)c4O[C@H]2[C@H](NC(=O)c2cccc(F)c2)CC[C@@]3(O)[C@H]1C5"
result = 18.2


// below: Ki requested for another molecule
stdin: Using the record for C=CCN1CC[C@]23c4c5ccc(O)c4O[C@H]2[C@H](NC(=O)c2cccc(Cl)c2)CC[C@@]3(O)[C@H]1C5 , report its Ki.
stdout: 4.87
